From: paper PMC4441536

experiment: in vivo; conditions: mouse, po, 5 mg/kg
Assay Readout: bioavailability (%)
Report only the number, with the unit % understood.

**Query** Param item = Cn1cc(CCn2cnc(-c3cnn(C)c3)c2-c2ccc(C#N)cc2)cn1 [Compound 13] ; retrieve measured bioavailability.
**Result** 70

###

assay: in vivo; conditions: mouse, iv, 5 mg/kg, Cmax, IV 5 mg/kg, individual animals 2, 3, 4
Assay Readout: Cmax (µM)
Report only the number, with the unit µM understood.

**Query** Param item = Cn1cc(CCn2cnc(-c3cnn(C)c3)c2-c2ccc(C#N)cc2)cn1 [Compound 13] ; retrieve measured Cmax.
**Result** 9.53

###

assay: physchem; settings: D2O
Assay Readout: solubility at 24 h (mM)
Report only the number, with the unit mM understood.

**Query** Param item = Cn1cc(CCn2cnc(-c3cnn(C)c3)c2-c2ccc(C#N)cc2)cn1 ; retrieve measured solubility at 24 h.
**Result** 25
